Answer each item with its documented shrunken log2 fold change.
Test system: Escherichia coli TOP10
Experiment: shrunken log2 fold change of peptide-encoding DNA abundance (4.5 h post-induction vs induction); higher = less antimicrobial activity (less host growth inhibition)
Test Parameters: time post-induction: 4.5 h; library: site-saturation at positions 5, 18, 19, 20
Reply with the value as a number alone.

Let me know recorded shrunken log2 fold change for RRIRCRPPRLPRPRPRPKRMPRP , thanks. 0.118

Let me know recorded shrunken log2 fold change for RRIRWRPPRLPRPRPRPFPMPRP , thanks. -0.111

Let me know recorded shrunken log2 fold change for RRIRPRPPRLPRPRPRPDCGPRP , thanks. 0.093

Let me know recorded shrunken log2 fold change for RRIRIRPPRLPRPRPRPGQEPRP , thanks. -0.00674

Let me know recorded shrunken log2 fold change for RRIRHRPPRLPRPRPRPKLMPRP , thanks. 0.165

Let me know recorded shrunken log2 fold change for RRIRSRPPRLPRPRPRPARIPRP , thanks. 0.0694

Let me know recorded shrunken log2 fold change for RRIRCRPPRLPRPRPRPGALPRP , thanks. 0.264

Let me know recorded shrunken log2 fold change for RRIRKRPPRLPRPRPRPSDPPRP , thanks. 0.0131

Let me know recorded shrunken log2 fold change for RRIRLRPPRLPRPRPRPKTYPRP , thanks. -0.511

Let me know recorded shrunken log2 fold change for RRIRIRPPRLPRPRPRPMWIPRP , thanks. -0.208

Let me know recorded shrunken log2 fold change for RRIRGRPPRLPRPRPRPKINPRP , thanks. 0.426

Let me know recorded shrunken log2 fold change for RRIRNRPPRLPRPRPRPPFIPRP , thanks. -0.551

Let me know recorded shrunken log2 fold change for RRIRLRPPRLPRPRPRPGARPRP , thanks. 0.369

Let me know recorded shrunken log2 fold change for RRIRARPPRLPRPRPRPNVIPRP , thanks. -0.433

Let me know recorded shrunken log2 fold change for RRIRTRPPRLPRPRPRPRTFPRP , thanks. 0.0284

###

Answer each item with its documented shrunken log2 fold change.
Test system: Escherichia coli TOP10
Experiment: shrunken log2 fold change of peptide-encoding DNA abundance (4.5 h post-induction vs induction); higher = less antimicrobial activity (less host growth inhibition)
Test Parameters: time post-induction: 4.5 h; library: site-saturation at positions 5, 18, 19, 20
Reply with the value as a number alone.

State shrunken log2 fold change (Escherichia coli TOP10) of RRIRMRPPRLPRPRPRPNSYPRP . -0.0962

State shrunken log2 fold change (Escherichia coli TOP10) of RRIRFRPPRLPRPRPRPRFEPRP . 0.162

State shrunken log2 fold change (Escherichia coli TOP10) of RRIRKRPPRLPRPRPRPTHTPRP . 0.285

State shrunken log2 fold change (Escherichia coli TOP10) of RRIRDRPPRLPRPRPRPDVAPRP . 0.0356

State shrunken log2 fold change (Escherichia coli TOP10) of RRIRDRPPRLPRPRPRPVDFPRP . 0.0775

State shrunken log2 fold change (Escherichia coli TOP10) of RRIRCRPPRLPRPRPRPVGMPRP . 0.0711

State shrunken log2 fold change (Escherichia coli TOP10) of RRIRQRPPRLPRPRPRPGKMPRP . 0.0812

State shrunken log2 fold change (Escherichia coli TOP10) of RRIRCRPPRLPRPRPRPIFAPRP . 0.373

State shrunken log2 fold change (Escherichia coli TOP10) of RRIRSRPPRLPRPRPRPLVCPRP . 0.0734

State shrunken log2 fold change (Escherichia coli TOP10) of RRIRLRPPRLPRPRPRPSGKPRP . 0.19

State shrunken log2 fold change (Escherichia coli TOP10) of RRIRTRPPRLPRPRPRPRLPPRP . 0.119

State shrunken log2 fold change (Escherichia coli TOP10) of RRIRERPPRLPRPRPRPIGTPRP . -0.976

State shrunken log2 fold change (Escherichia coli TOP10) of RRIRRRPPRLPRPRPRPMYHPRP . -0.159

State shrunken log2 fold change (Escherichia coli TOP10) of RRIRNRPPRLPRPRPRPQPQPRP . -0.0877

State shrunken log2 fold change (Escherichia coli TOP10) of RRIRSRPPRLPRPRPRPHFIPRP . -0.344

State shrunken log2 fold change (Escherichia coli TOP10) of RRIRIRPPRLPRPRPRPPAYPRP . -0.384

State shrunken log2 fold change (Escherichia coli TOP10) of RRIRDRPPRLPRPRPRPPWMPRP . 0.261

State shrunken log2 fold change (Escherichia coli TOP10) of RRIRRRPPRLPRPRPRPMCPPRP . -0.119

State shrunken log2 fold change (Escherichia coli TOP10) of RRIRARPPRLPRPRPRPKAGPRP . 0.213

State shrunken log2 fold change (Escherichia coli TOP10) of RRIRVRPPRLPRPRPRPHNNPRP . -0.652

State shrunken log2 fold change (Escherichia coli TOP10) of RRIRDRPPRLPRPRPRPESHPRP . 0.0331

State shrunken log2 fold change (Escherichia coli TOP10) of RRIRCRPPRLPRPRPRPPDVPRP . 0.156

State shrunken log2 fold change (Escherichia coli TOP10) of RRIRFRPPRLPRPRPRPRNTPRP . -0.279

State shrunken log2 fold change (Escherichia coli TOP10) of RRIRCRPPRLPRPRPRPNCKPRP . -0.138

State shrunken log2 fold change (Escherichia coli TOP10) of RRIRYRPPRLPRPRPRPPSDPRP . -0.185

State shrunken log2 fold change (Escherichia coli TOP10) of RRIRGRPPRLPRPRPRPMFMPRP . 0.0699

State shrunken log2 fold change (Escherichia coli TOP10) of RRIRQRPPRLPRPRPRPVPPPRP . 0.536

State shrunken log2 fold change (Escherichia coli TOP10) of RRIRARPPRLPRPRPRPKECPRP . 0.0495

State shrunken log2 fold change (Escherichia coli TOP10) of RRIRARPPRLPRPRPRPVAGPRP . 0.35

State shrunken log2 fold change (Escherichia coli TOP10) of RRIRRRPPRLPRPRPRPHCPPRP . 0.0475

State shrunken log2 fold change (Escherichia coli TOP10) of RRIRSRPPRLPRPRPRPYKMPRP . -0.425

State shrunken log2 fold change (Escherichia coli TOP10) of RRIRARPPRLPRPRPRPIEFPRP . -0.0488

###

System: Escherichia coli TOP10;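 further: peptides expressed intracellularly from a pBAD plasmid library in pooled LB shake-flask culture, induced with 0.3% L-arabinose, DNA abundance read by NGS, three biological replicates, DESeq2 with apeglm shrinkage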
Experiment: shrunken log2 fold change of peptide-encoding DNA abundance (4.5 h post-induction vs induction); higher = less antimicrobial activity (less host growth inhibition)
Test Parameters: time post-induction: 4.5 h; library: site-saturation at positions 5, 18, 19, 20
Hi all, reminder that labels come from shrunken log2 fold change, split as lo = under -0.08, med = from -0.08 up to 0.02, hi = 0.02 and over

# classify by shrunken log2 fold change band: RRIRFRPPRLPRPRPRPRGSPRP hi

# classify by shrunken log2 fold change band: RRIRDRPPRLPRPRPRPDFNPRP lo

# classify by shrunken log2 fold change band: RRIRHRPPRLPRPRPRPHMTPRP med

# classify by shrunken log2 fold change band: RRIRFRPPRLPRPRPRPCNIPRP hi

# classify by shrunken log2 fold change band: RRIRFRPPRLPRPRPRPNCNPRP lo

# classify by shrunken log2 fold change band: RRIRNRPPRLPRPRPRPERNPRP med

# classify by shrunken log2 fold change band: RRIRTRPPRLPRPRPRPKQEPRP med

# classify by shrunken log2 fold change band: RRIRYRPPRLPRPRPRPHVMPRP lo

# classify by shrunken log2 fold change band: RRIRYRPPRLPRPRPRPHDLPRP med

# classify by shrunken log2 fold change band: RRIRERPPRLPRPRPRPAAIPRP lo

# classify by shrunken log2 fold change band: RRIRFRPPRLPRPRPRPAAFPRP med

# classify by shrunken log2 fold change band: RRIRCRPPRLPRPRPRPPKCPRP hi

# classify by shrunken log2 fold change band: RRIRLRPPRLPRPRPRPLQVPRP hi

# classify by shrunken log2 fold change band: RRIRRRPPRLPRPRPRPMSYPRP med

# classify by shrunken log2 fold change band: RRIRMRPPRLPRPRPRPPENPRP med

# classify by shrunken log2 fold change band: RRIRTRPPRLPRPRPRPPKEPRP med

# classify by shrunken log2 fold change band: RRIRIRPPRLPRPRPRPADDPRP med

# classify by shrunken log2 fold change band: RRIRTRPPRLPRPRPRPGWMPRP lo

# classify by shrunken log2 fold change band: RRIRVRPPRLPRPRPRPTSIPRP lo

# classify by shrunken log2 fold change band: RRIRMRPPRLPRPRPRPGDQPRP hi

# classify by shrunken log2 fold change band: RRIRLRPPRLPRPRPRPVLVPRP lo

# classify by shrunken log2 fold change band: RRIRKRPPRLPRPRPRPRNRPRP lo

# classify by shrunken log2 fold change band: RRIRERPPRLPRPRPRPLHFPRP lo

# classify by shrunken log2 fold change band: RRIRQRPPRLPRPRPRPGFWPRP hi

# classify by shrunken log2 fold change band: RRIRKRPPRLPRPRPRPEIPPRP med

# classify by shrunken log2 fold change band: RRIRLRPPRLPRPRPRPLVHPRP med

# classify by shrunken log2 fold change band: RRIRHRPPRLPRPRPRPLDGPRP lo

# classify by shrunken log2 fold change band: RRIRKRPPRLPRPRPRPCSCPRP med

# classify by shrunken log2 fold change band: RRIRNRPPRLPRPRPRPLAAPRP hi

# classify by shrunken log2 fold change band: RRIRCRPPRLPRPRPRPRFWPRP hi

# classify by shrunken log2 fold change band: RRIRTRPPRLPRPRPRPRVDPRP hi

# classify by shrunken log2 fold change band: RRIRLRPPRLPRPRPRPCDDPRP lo

# classify by shrunken log2 fold change band: RRIRIRPPRLPRPRPRPNHSPRP lo

# classify by shrunken log2 fold change band: RRIRNRPPRLPRPRPRPVYRPRP lo

# classify by shrunken log2 fold change band: RRIRVRPPRLPRPRPRPCKFPRP med

# classify by shrunken log2 fold change band: RRIRNRPPRLPRPRPRPTMVPRP med

# classify by shrunken log2 fold change band: RRIRLRPPRLPRPRPRPMGAPRP hi

# classify by shrunken log2 fold change band: RRIRTRPPRLPRPRPRPILSPRP med

# classify by shrunken log2 fold change band: RRIRERPPRLPRPRPRPECMPRP med

# classify by shrunken log2 fold change band: RRIRDRPPRLPRPRPRPEHWPRP hi

# classify by shrunken log2 fold change band: RRIRTRPPRLPRPRPRPHQRPRP med

# classify by shrunken log2 fold change band: RRIRYRPPRLPRPRPRPIELPRP med

# classify by shrunken log2 fold change band: RRIRLRPPRLPRPRPRPRWPPRP hi

# classify by shrunken log2 fold change band: RRIRHRPPRLPRPRPRPDFMPRP med

# classify by shrunken log2 fold change band: RRIRSRPPRLPRPRPRPHFWPRP hi

# classify by shrunken log2 fold change band: RRIRRRPPRLPRPRPRPDYRPRP hi

# classify by shrunken log2 fold change band: RRIRQRPPRLPRPRPRPFDVPRP hi

# classify by shrunken log2 fold change band: RRIRFRPPRLPRPRPRPCPYPRP lo

# classify by shrunken log2 fold change band: RRIRYRPPRLPRPRPRPNLDPRP lo

# classify by shrunken log2 fold change band: RRIRNRPPRLPRPRPRPQNRPRP lo

# classify by shrunken log2 fold change band: RRIRQRPPRLPRPRPRPYACPRP hi

# classify by shrunken log2 fold change band: RRIRSRPPRLPRPRPRPPTWPRP hi

# classify by shrunken log2 fold change band: RRIRSRPPRLPRPRPRPYRTPRP med

# classify by shrunken log2 fold change band: RRIRVRPPRLPRPRPRPDCPPRP lo

# classify by shrunken log2 fold change band: RRIRVRPPRLPRPRPRPAQEPRP hi

# classify by shrunken log2 fold change band: RRIRQRPPRLPRPRPRPGGIPRP hi

# classify by shrunken log2 fold change band: RRIRERPPRLPRPRPRPCVPPRP med

# classify by shrunken log2 fold change band: RRIRTRPPRLPRPRPRPAVFPRP hi

# classify by shrunken log2 fold change band: RRIRERPPRLPRPRPRPNTQPRP lo

# classify by shrunken log2 fold change band: RRIRARPPRLPRPRPRPCYMPRP lo

# classify by shrunken log2 fold change band: RRIRDRPPRLPRPRPRPNWKPRP med

# classify by shrunken log2 fold change band: RRIRHRPPRLPRPRPRPHRDPRP lo

Data provenance: the supplement of paper PMC9112550
